System: Toxoplasma gondii
Test: Antimicrobial activity against wild-type Toxoplasma gondii RH infected in human CRL1634 cells assessed as intracellular parasite survival at 5 uM after 18 hrs by [5,6-[…]]uracil-based scintillation counting
Assay type: functional
Readings of Activity for the listed compounds
Give a bare numeral; the unit % is implied.

Field: example entries. Status: answers known.
* Cc1ccc(CSc2ncnc3c2ncn3[C@@H]2C[C@H](CO)[C@@H](O)[C@H]2O)cc1 | 43
* Nc1ccc(S(=O)(=O)Nc2ncccn2)cc1 [SULFADIAZINE] | 93
* OC[C@H]1C[C@@H](n2cnc3c(SCc4ccc(Cl)cc4)ncnc32)[C@H](O)[C@@H]1O | 73

# ---- query compound ----
Activity recorded for this compound, CCc1nc(N)nc(N)c1-c1ccc(Cl)cc1 [PYRIMETHAMINE] , is 99
